Some compounds, each annotated with its measured TGI.
Tested on: HS 578T breast
assay_remarks: NCI tumour cell line growth inhibition, 48 h

>  <compound>
NC1=Nc2cc(Cl)ccc2Sc2nc3ccccc3n21

>  <target_or_system>
HS 578T breast

>  <TGI>
> 100 µM

$$$$
>  <compound>
Cc1csc2[n+]1-c1ccccc1N(C(=O)Nc1ccccc1)C(C)C2 (stereo not given)

>  <target_or_system>
HS 578T breast

>  <TGI>
> 100 µM

$$$$
>  <compound>
Cc1ccc(S(=O)(=O)SC(C)(C)C)cc1

>  <target_or_system>
HS 578T breast

>  <TGI>
> 100 µM

$$$$
>  <compound>
CNC(=O)c1c(NC(=O)c2ccc(C(C)(C)C)cc2)sc2c(CN(C)C)c(O)ccc12

>  <target_or_system>
HS 578T breast

>  <TGI>
4.56 µM

$$$$
>  <compound>
Nc1nc(Cl)cc(NC2(CO)CCC2)n1

>  <target_or_system>
HS 578T breast

>  <TGI>
> 100 µM

$$$$
>  <compound>
COC(=O)C1=C(O)[C@H](C(=O)OC)C2(O)C(C(=O)OC)[C@H](c3ccc(OC(=O)C(C)c4ccc(CC(C)C)cc4)cc3)C[C@@H]1[C@@H]2C(=O)OC (stereo not given in full)

>  <target_or_system>
HS 578T breast

>  <TGI>
> 50 µM

$$$$
>  <compound>
CCOCCCn1c2c(c3c(O)cccc31)C(=O)c1ccccc1-2

>  <target_or_system>
HS 578T breast

>  <TGI>
82.3 µM

$$$$
>  <compound>
Cc1cc(S(=O)(=O)Nc2nnc3cnc4ccccc4n23)c(S)cc1Cl

>  <target_or_system>
HS 578T breast

>  <TGI>
> 100 µM

$$$$
>  <compound>
O=C(N/N=C\c1ccc(N(CCCl)CCCl)cc1[N+](=O)[O-])c1cccnc1

>  <target_or_system>
HS 578T breast

>  <TGI>
> 100 µM

$$$$
>  <compound>
Cc1oc2c(c1C)S(=O)(=O)C(C#N)=C(N(C)C)N2

>  <target_or_system>
HS 578T breast

>  <TGI>
> 100 µM

$$$$
>  <compound>
CCN(CC)CCCNc1cc(OC)cc2nc3cc(Cl)ccc3nc12

>  <target_or_system>
HS 578T breast

>  <TGI>
9.48 µM

$$$$
>  <compound>
CCCCCCCCCCCC[C@@H](O)[C@H]1CCC([C@H](O)CCCCC(=O)CCCCCCCC2=C[C@H](C)OC2=O)O1 (stereo not given in full)

>  <target_or_system>
HS 578T breast

>  <TGI>
> 32.8 µM

$$$$
>  <compound>
CCOC(=O)Oc1cc2c(c(OC)c1OC)-c1ccc(OC)c(=O)cc1C(NC(C)=O)CC2 (stereo not given)

>  <target_or_system>
HS 578T breast

>  <TGI>
> 100 µM

$$$$
>  <compound>
COc1ccc(N=NC(=O)NC(CC(C)C)C(N)=O)cc1 (stereo not given)

>  <target_or_system>
HS 578T breast

>  <TGI>
> 100 µM

$$$$
>  <compound>
C=C/C=C/[C@@H](O)CC(=C)C[C@H]1OC2[C@H](C)[C@@H](OC(=O)C[C@H]3C[C@H](OC(C)=O)C[C@@]4(C[C@@](C)(O)C[C@H](CC(=C)[C@@H](C)[C@H](OC(C)=O)[C@H](C)C(=O)C[C@@H]5C[C@H](OC)CC6(C[C@@H](O)C[C@H](/C=C\CCC[C@H]7O[C@](O)(C=C[C@H]7C)[C@H]2O)O6)O5)O4)O3)[C@@H]1O

>  <target_or_system>
HS 578T breast

>  <TGI>
0.0082 µM

$$$$
>  <compound>
CC1(C)CNc2cc(NC(=O)c3cccnc3NCc3ccncc3)ccc21

>  <target_or_system>
HS 578T breast

>  <TGI>
> 100 µM

$$$$
>  <compound>
NCC(O)CNC(=O)c1ccc(-c2ccc(-c3ccc(C(=O)NCC(O)CN)cc3)o2)cc1 (stereo not given)

>  <target_or_system>
HS 578T breast

>  <TGI>
59.7 µM

$$$$
>  <compound>
Nc1ccc(C2=CC(c3ccc(Cl)cc3)N3C=CSC3=N2)cc1 (stereo not given)

>  <target_or_system>
HS 578T breast

>  <TGI>
> 100 µM

$$$$
>  <compound>
CC(=O)Nc1c(S(=O)(=O)c2ccccc2)c(C)c(C)n1Cc1ccccc1

>  <target_or_system>
HS 578T breast

>  <TGI>
> 100 µM

$$$$
>  <compound>
Cc1ccccc1NC(=O)c1sc2nc(C)c(C(=O)/C=C/c3ccccc3)cc2c1N

>  <target_or_system>
HS 578T breast

>  <TGI>
> 50 µM

$$$$

====

Entries and their GI50 values follow.
Test system: NCI/ADR-RES ovarian
assay_remarks: NCI tumour cell line growth inhibition, 48 h

>  <compound>
CCN(Cc1ccccc1)C1CCN(Cc2cc(Br)ccc2O)CC1

>  <GI50>
31.9 µM

$$$$
>  <compound>
COC(=O)[C@H](Cc1cnc[nH]1)NC(=O)[C@@H](NC(=O)Nc1cc(C(F)(F)F)cc(C(F)(F)F)c1)C(C)C

>  <GI50>
33.7 µM

$$$$
>  <compound>
COc1ccc2c(c1)[nH]c(=O)c1c3cccc(F)c3cn21

>  <GI50>
0.038 µM

$$$$
>  <compound>
NC(=O)c1cc([N+](=O)[O-])c(Cl)c([N+](=O)[O-])c1Cl

>  <GI50>
2.01 µM

$$$$
>  <compound>
Cc1cc2c(cc1Cl)S/C(=C/C(=O)O)C(Nc1ccc3ncsc3c1)=NS2(=O)=O

>  <GI50>
> 18.1 µM

$$$$
>  <compound>
CCCCCCCCCCCCCC[N+](C)(C)CCCCCCCCCCCCCC

>  <GI50>
7.42 µM

$$$$
>  <compound>
CC1=C(SCCC(=O)OC(C[Se]C2=C(C)C(=O)c3ccccc3C2=O)C(=O)NCCCCCC(=O)OCc2ccccc2)C(=O)c2ccccc2C1=O (stereo not drawn)

>  <GI50>
4.59 µM

$$$$
>  <compound>
CCN(CC)CCN1C(=O)c2c(c3c4ccccc4[nH]c3c3ccc4ccccc4c23)C1=O

>  <GI50>
1.59 µM

$$$$
>  <compound>
COc1ccc2c(c1)c(-c1nc(-c3c[nH]c4ccncc34)cs1)cn2C

>  <GI50>
1.76 µM

$$$$
>  <compound>
CCc1ccc(CCC(=O)Nc2ncc(Cc3ccc(Cl)cc3)s2)o1

>  <GI50>
0.335 µM

$$$$
>  <compound>
CC(N)(Cc1c[nH]c2cccc(F)c12)C(=O)O (stereo not drawn)

>  <GI50>
> 1000 µM

$$$$
>  <compound>
CC1(C)CNc2cc(NC(=O)c3cccnc3NCc3ccncc3)ccc21

>  <GI50>
25.1 µM

$$$$
>  <compound>
CCOCCCn1c2c(c3c(O)cccc31)C(=O)c1ccccc1-2

>  <GI50>
20.8 µM

$$$$

====

System: SW-620 colon
assay_remarks: NCI tumour cell line growth inhibition, 48 h; in the data active means GI50 below about 0.43 µM; inactive means the rest
Outcome codes: true (1) (active), false (0) (inactive)

>  <smiles_structure>
COc1ccc(CN2c3ccccc3Sc3ccccc32)c(C(F)(F)F)c1

>  <classification>
false (0)

$$$$
>  <smiles_structure>
O=C(Nc1cccc(O)c1)c1ccc(NC2=C(Cl)C(=O)N(Cc3ccc(Cl)cc3Cl)C2=O)cc1

>  <classification>
false (0)

$$$$
>  <smiles_structure>
COc1cc(/C=N/Nc2ncnc3c2cnn3-c2ccccc2)ccc1O

>  <classification>
false (0)

$$$$
>  <smiles_structure>
Cn1cc(-c2ccc3cc(-c4ccc(CC(=O)Nc5cc(C(C)(C)C)on5)cc4)cnc3c2)cn1

>  <classification>
false (0)

$$$$
>  <smiles_structure>
COc1ccc(/C(COc2ccc3oc(-c4ccccc4)cc(=O)c3c2)=N\O)cc1

>  <classification>
true (1)

$$$$

====

Tested on: OVCAR-5 ovarian
assay_remarks: NCI tumour cell line growth inhibition, 48 h
TGI values by entry

>  <molecule>
CCCCCCCCCCCCCCCCCCn1cc[n+](C)c1

>  <TGI>
2 µM

$$$$
>  <molecule>
COC(=O)c1c(C#N)c(N)nc2c1CCC2

>  <TGI>
> 100 µM

$$$$
>  <molecule>
Cc1csc2[n+]1-c1ccccc1N(C(=O)Nc1ccccc1)C(C)C2 (stereo unspecified)

>  <TGI>
99.5 µM

$$$$
>  <molecule>
COC1=CC2(CC(OC)=C1OC)OC21COc2ccccc2C1=O (stereo unspecified)

>  <TGI>
> 100 µM

$$$$
>  <molecule>
COc1ccc2c(c1)nc(C(=O)c1ccco1)c(C(F)(F)F)[n+]2[O-]

>  <TGI>
> 100 µM

$$$$
>  <molecule>
CN(c1ccc(C(=O)c2ccc(N(C)S(C)(=O)=O)cc2)cc1)S(C)(=O)=O

>  <TGI>
> 100 µM

$$$$
